System: M. mycetomatis genome strain MM55
assay_protocol: CLSI M38-A2 based in vitro susceptibility screening (XTT or resazurin), growth at fixed concentration
Type: cell-based, Madurella mycetomatis
assay_setup: Madurella mycetomatis, 25 uM, mean; read-out: Percentage survival at 25um, 25 uM mean
endpoint_name: activity at 25 µM (%)
Express the result in % but write the number alone.

I would be grateful if you could share the reported activity at 25 µM for CC(C)(C)c1ccc(C(=O)NC(=O)N2CCCc3ccccc32)cc1 .
78.4

Returns the measured activity at 25 µM for the input compound. Input: COC(=O)Nc1nc2ccc(Sc3ccccc3)cc2[nH]1
2.38

Item COc1cc(NC(=O)CN2C(=O)NC(c3ccccc3)(c3ccccc3)C2=O)cc(OC)c1 has what recorded activity at 25 µM?
72

New cases:
What value of activity at 25 µM has been recorded for this entry: CCOC(=O)Nc1cc(NC(C)CC(C)CN(CC)CC)c2nc(-c3ccccc3)c(-c3ccccc3)nc2n1 (stereo not drawn)
-1.71

// returns reported activity at 25 µM for input OB1OCc2cc(Cl)ccc21
33.1

Form field: reported activity at 25 µM of Cc1cc(C2CCCCC2)n(O)c(=O)c1
32

Name the reported activity at 25 µM value associated with the compound O=S(=O)(NCB(O)O)c1cc2c(Cl)ccc(Cl)c2s1
69.4

What measured activity at 25 µM goes with Cc1cc(Nc2ccc(F)cc2)nc(SCc2nc3ccccc3[nH]2)n1 ?
92.9

Which activity at 25 µM value belongs to O=C(NCc1cccc2ccccc12)c1cccs1 ?
55.9

---

Test system: M. mycetomatis genome strain MM55
assay_protocol: CLSI M38-A2 based in vitro susceptibility screening (XTT or resazurin), growth at fixed concentration
Type: cell-based, Madurella mycetomatis
assay_setup: Madurella mycetomatis, 25 uM, mean; read-out: Percentage survival at 25um, 25 uM mean
endpoint_name: activity at 25 µM (%)
Express the result in % but write the number alone.

M. mycetomatis genome strain MM55 / activity at 25 µM / COC(=O)Nc1nc2ccc([S+]([O-])c3ccccc3)cc2[nH]1 (stereo not shown) [MMV002565, Oxfendazole, reference compound] : value?
87.4

Checklist item: activity at 25 µM tested on M. mycetomatis genome strain MM55, entry Oc1cc(-c2cccc3ccccc23)[nH]n1 [MMV422940] , value?
79.9

Recall the recorded activity at 25 µM for COc1cc(C)c2c(Oc3cccc(C(F)(F)F)c3)c(OC)cc(NC(C)CCCN)c2n1 (stereo not shown) [MMV000043, Tafenoquine, reference compound] with M. mycetomatis genome strain MM55 and state it.
0.788

Provide the documented activity at 25 µM with M. mycetomatis genome strain MM55 as the system for Nc1nc(O)ncc1F [MMV004508]
84

Item CCCNc1ccc(S(=O)(=O)Nc2cc(C)on2)cc1 [MMV1782216] with M. mycetomatis genome strain MM55 - activity at 25 µM?
75.9

Further cases:
Any idea what activity at 25 µM came out for CC(C)c1ccc(COc2cccc(-c3cc([S+](C)[O-])c(C#N)c(=O)[nH]3)c2)cc1 (stereo not shown) [MMV1582497] on M. mycetomatis genome strain MM55?
61.3

Any idea what activity at 25 µM came out for O=C(N[C@H](Cc1cccc2ccccc12)C(=O)NCCc1c[nH]cn1)C1Cc2ccccc2C1 [MMV1782109] on M. mycetomatis genome strain MM55?
80.7

Reported activity at 25 µM for M. mycetomatis genome strain MM55, given CN(Cc1ccc(C(C)(C)C)cc1)Cc1cccc2ccccc12 [MMV637104] ?
40.9

Give activity at 25 µM (M. mycetomatis genome strain MM55) of the following molecule: CN(C/C=C/C#CC(C)(C)C)Cc1cccc2ccccc12 [MMV1634359]
97.3

Please tell me: activity at 25 µM of CONC(=N)c1ccc(-c2ccc(-c3ccc(C(=N)NOC)cc3)o2)cc1 [MMV000059] , system M. mycetomatis genome strain MM55?
84.9

---

Tested on: M. mycetomatis genome strain MM55
assay_protocol: CLSI M38-A2 based in vitro susceptibility screening (XTT or resazurin), growth at fixed concentration
Type: cell-based, Madurella mycetomatis
assay_setup: Madurella mycetomatis, read-out: Percentage survival at 25um, 25 uM C
Everything with activity at 25 µM lower than 80% is criterion not met; everything else, including exactly 80%, is criterion met.

Would you please look over these solved cases?
Check if activity at 25 µM >= 80% (inclusive). Item: NC1(C(=O)O)CCP(=O)(O)CC1 (centres unmarked)
criterion not met

Evaluate [N-]=[N+]=N[C@H]1C[C@H](n2ccc(=O)[nH]c2=O)O[C@@H]1CO : activity at 25 µM at minimum 80%?
criterion met

***
Test whether the compound Nc1nc(F)nc2c1ncn2[C@@H]1O[C@H](CO)[C@@H](O)[C@@H]1O [MMV637413, Fludarabine, reference compound] records activity at 25 µM of 80% or higher.
criterion not met

---

Test system: ten different M. mycetomatis isolates
assay_protocol: MIC / MIC50 determination (XTT) in ten M. mycetomatis isolates
Assay type: cell-based, Madurella mycetomatis
assay_setup: Madurella mycetomatis, over the isolates tested; read-out: MIC50 mean
endpoint_name: MIC50 (µM)
Number only, in µM; omit the unit.

Example entries and their recorded answers appear below.
For COc1cc(C)c2c(Oc3cccc(C(F)(F)F)c3)c(OC)cc(NC(C)CCCN)c2n1 (centres unmarked) [MMV000043, Tafenoquine, reference compound] , what is its reported MIC50?
4

Param item = COC(=O)Nc1nc2c(C)cccc2[nH]1 [MMV1782387] ; retrieve measured MIC50.
4

For COC(=O)Nc1nc2ccc(Sc3ccccc3)cc2[nH]1 [MMV003143, Fenbendazole] , what is its reported MIC50?
0.5

Could you share which MIC50 value was measured for O[C@@](Cn1cnnn1)(c1ccc(F)cc1F)C(F)(F)c1ccc(-c2ccc(OCC(F)(F)F)cc2)cn1 [MMV1634386, Oteseconazole, reference compound] ?
1

For the next question, use this molecule.
What value of MIC50 has been recorded for this entry: Clc1cc(Cl)c2c(c1)CCc1ccccc1C2n1ccnc1 (centres unmarked) [MMV1634492, Eberconazole, reference compound]
0.5

---

Tested on: M. mycetomatis genome strain MM55
assay_protocol: CLSI M38-A2 based in vitro susceptibility screening (XTT or resazurin), growth at fixed concentration
Format: cell-based, Madurella mycetomatis
assay_setup: Madurella mycetomatis, 100 uM, mean of three, M. mycetomatis MM55; read-out: Percentage survival at 100um, 100 uM mean
Cut-off 80% on activity at 100 µM: below means fulfilled, at or above means not fulfilled.

The examples below pair each entry with its known result.
# TODO verify activity at 100 µM < 80% strictly for this molecule: CN1CCN(c2ccc3[nH]c(-c4ccc5[nH]c(-c6ccc(O)cc6)nc5c4)nc3c2)CC1 [MMV020752]
fulfilled

Dear reviewer, please state whether COc1cc(Cc2cnc(N)nc2N)cc(OC)c1OC [MMV000028] has activity at 100 µM strictly beneath 80%.
fulfilled

In plain terms, does Cc1cc(-c2ccccc2)c(C(=O)C(=O)Nc2ccc(N3CCN(c4ncc(F)cn4)CC3)cc2)n1C [MMV1782354, Olorofim] come in under 80% for activity at 100 µM?
fulfilled

Is 80% strictly greater than the molecule's reported activity at 100 µM? molecule: CC(=O)O[C@H]1C[C@@]2(C)[C@@H](C[C@@H](O)[C@H]3[C@@]4(C)CC[C@@H](O)[C@@H](C)[C@@H]4CC[C@@]32C)/C1=C(\CCC=C(C)C)C(=O)O [MMV1578575]
not fulfilled

Field: below-cutoff. Rule: recorded activity at 100 µM strictly less than 80%. Subject: CC(C)(C)c1ccc(OCCn2nc(C(=O)O)c3ccccc3c2=O)cc1 [MMV1634387]
fulfilled

Say whether its activity at 100 µM is strictly beneath 80%. Entry: OCCCCn1cnc2c(O)nc(NCc3ccc(Cl)c(Cl)c3)nc21 [MMV1593542]
fulfilled

New cases:
Answer whether the molecule CCCCCOc1ccc(/C=C2\Oc3c(ccc(O)c3O)C2=O)c(O)c1 [MMV1580851] has activity at 100 µM strictly less than 80%
not fulfilled

---

Test system: M. mycetomatis genome strain MM55
assay_protocol: CLSI M38-A2 based in vitro susceptibility screening (XTT or resazurin), growth at fixed concentration
Type: cell-based, Madurella mycetomatis
assay_setup: Madurella mycetomatis, 100 uM, mean; read-out: Percentage survival at 100um, 100 uM mean
activity at 100 µM below 60% gives n; activity at 100 µM at or above it gives y.

Hi team, for O=S(=O)(NCB(O)O)c1cc2c(Cl)ccc(Cl)c2s1 , is the recorded activity at 100 µM at or above 60%?
y

Kindly determine if activity at 100 µM recorded for O=C1c2cccc3cccc(c23)C(=O)N1CC1CO1 (centres unmarked) is above or exactly 60%.
n

---

System: M. mycetomatis genome strain MM55
assay_protocol: CLSI M38-A2 based in vitro susceptibility screening (XTT or resazurin), growth at fixed concentration
Assay type: cell-based, Madurella mycetomatis
assay_setup: Madurella mycetomatis, 25 uM, replicate A; read-out: Percentage survival at 25um, 25 um A
endpoint_name: activity at 25 µM (%)
// note: answer is a bare numeric in %

Fill blank: measured activity at 25 µM of the molecule NCC(=O)Nc1ccc(-n2nc(C(F)(F)F)cc2-c2ccc3c(ccc4ccccc43)c2)cc1 is ____.
29.4

Dear colleague, I am looking for the recorded activity at 25 µM of the following molecule: O=C(O)c1ccc(-n2nc(-c3ccccc3O)nc2-c2ccccc2O)cc1
94.6

Entry under review: COc1ccc(NS(=O)(=O)c2ccc(Cl)s2)cn1 . Reported activity at 25 µM?
77.6

So what does the record say about activity at 25 µM for CC(C)(C)NC(=O)N[C@H](C(=O)N1C[C@H]2[C@@H]([C@H]1C(=O)NC(CC1CCC1)C(=O)C(N)=O)C2(C)C)C(C)(C)C (stereo partly drawn) ?
89.4

Find the recorded activity at 25 µM belonging to Nc1nc(C(F)(F)F)cc2c1[nH]c(=O)n2Cc1ccccc1 and report it.
74.5

Continuing:
Which activity at 25 µM is listed for O=S(=O)(NCB(O)O)c1cc2c(Cl)ccc(Cl)c2s1 ?
79.1

Look up activity at 25 µM: CCCCCCC1c2ccc(O)cc2Oc2cc(O)ccc21
72.8

Report activity at 25 µM for NC1C2CC3CC(C2)CC1C3 (stereo not drawn) please.
84.6

Requested read-out: activity at 25 µM. Entry: Cc1ccc(C)c(OCCCCCCN2C[C@H](O)[C@@H](O)[C@H](O)[C@H]2CO)c1
64.4

Data origin, for the record: paper PMC8815882
